Molecular target: PSD-95 PDZ3cα protein (residues R309-S422) (UniProt P78352 309-422)
Sequence (P78352 309-422): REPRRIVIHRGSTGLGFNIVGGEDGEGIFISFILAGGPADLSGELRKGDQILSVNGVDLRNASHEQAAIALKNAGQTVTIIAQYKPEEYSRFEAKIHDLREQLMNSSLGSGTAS
Assay: SPR
Non-standard residues stand in square brackets, D forms with d. No end group written: not given here. Trp(5-OH) = N[C@@H](Cc1c[nH]c2ccc(O)cc12)C(=O)O
Exercise: for every item that follows, state its recorded kon.
Could you give me the number in M⁻¹ s⁻¹? Just the number is fine.

For CN2097 (peptide) chain 1: RRRRRRRC chain 2: CKNYKKTEV the binder record lists kon as 6000

The binder listed as RRRRRRGSFPPWV[dQ]QTRV [SYNGAP peptide D-Gln9] shows kon equal to 317000

Lab note: CGSFPPWVKKTEV (not fully specified) [Syn3*] gave kon of 439000

Measured kon of RRRRRRGSFPP[Trp(5-OH)]VQQTRV [SYNGAP peptide W7-OHW] : 24000
